Every entry's value here was drawn from PubChem BioAssay (EPA / NIEHS).

Assay: BSK_LPS_PGE2: BioMAP Diversity Plus: LPS Assay for Prostaglandin E2 (PGE2) Biomarker Activity (AID 2283082)
Settings: primary human HUVEC with PBMC; actives raise or lower the signal
Calls of active or inactive are those of the source. Rule for the calls: active = hit-call score of the fitted dose curve at least 0.9, where 1 is the maximum; inactive = score below 0.9.
Outcomes: yes for active, no for inactive

{"compound": "Fc1ccc(Br)cc1", "assigned-category": "no"}
{"compound": "Cc1ccc([N+](=O)[O-])cc1N", "assigned-category": "no"}
{"compound": "O=C1CCCCCCCCCCCN1", "assigned-category": "no"}
{"compound": "C=CC(=O)OCC(C)OCC(C)OCC(C)OC(=O)C=C (stereo not given)", "assigned-category": "yes"}
{"compound": "Cc1c(O)cccc1O", "assigned-category": "no"}
{"compound": "CCC1(C)C(=O)N(Cl)C(=O)N1Cl (stereo not given)", "assigned-category": "no"}
{"compound": "CCCCC1C(=O)N(c2ccccc2)N(c2ccccc2)C1=O", "assigned-category": "no"}
{"compound": "O=C1CCCCCCCCCCC1", "assigned-category": "no"}
{"compound": "CCCCCCC=O", "assigned-category": "no"}
{"compound": "C=CC(=O)OCCCCCCCC(C)C", "assigned-category": "no"}
{"compound": "CC(c1cc(C(C)(C)C)cc(C(C)(C)C)c1O)c1cc(C(C)(C)C)cc(C(C)(C)C)c1O", "assigned-category": "no"}
{"compound": "C1CNCCN1", "assigned-category": "no"}
{"compound": "CCNc1nc(NC(C)(C)C)nc(OC)n1", "assigned-category": "yes"}
{"compound": "Oc1ccc(/C=C/c2cc(O)cc(O)c2)cc1", "assigned-category": "yes"}
{"compound": "CCCCCCCCC(CO)CCCCCC (stereo not given)", "assigned-category": "no"}
{"compound": "COC(OC)(C(=O)c1ccccc1)c1ccccc1", "assigned-category": "no"}
{"compound": "COc1ccc(C(=O)c2ccccc2)c(O)c1", "assigned-category": "yes"}
{"compound": "Clc1cc(Cl)c(Cl)c(Cl)c1Cl", "assigned-category": "no"}
{"compound": "O=C(O)C(F)(F)C(F)(F)C(F)(F)C(F)(F)C(=O)O", "assigned-category": "no"}
{"compound": "CC(C)c1cccc(C(C)C)c1N", "assigned-category": "no"}
{"compound": "CC(C)CCCCCOC(=O)CS", "assigned-category": "no"}
{"compound": "CC(Cl)COP(=O)(OCC(C)Cl)OCC(C)Cl (stereo not given)", "assigned-category": "no"}
{"compound": "CC1=CC=C(C(C)C)CC1", "assigned-category": "no"}
{"compound": "C=CC(=O)NC(C)(C)C", "assigned-category": "no"}
{"compound": "CC(C)C(=O)OCCc1ccccc1", "assigned-category": "no"}
{"compound": "CCCCCCOC(=O)CCCCC(=O)OCCCCCC", "assigned-category": "no"}
{"compound": "CCOC(=O)C1=NOC(c2ccccc2)(c2ccccc2)C1", "assigned-category": "no"}
{"compound": "Nc1nc(N)nc(-c2ccccc2)n1", "assigned-category": "no"}
{"compound": "CC=C(C)C=CC=C(C)C", "assigned-category": "no"}
{"compound": "CCOC(=O)C1=NN(c2ccc(Cl)cc2Cl)C(C)(C(=O)OCC)C1 (stereo not given)", "assigned-category": "yes"}
